Field: half-life. Provide a value for each of the molecules that follow.
# Method Notes: Half life in mouse at 5 mg/kg, iv
# Type: ADME, organism-based
# Set-up: dose 5 mg/kg, route intravenous
# Condition Info: in vivo
Response body: numeric value in h, unit text excluded.

Asked: Entry under review: Cc1ccc(N2CCN(C(=O)[C@H](C)Cc3ccc(Cl)cc3)CC2)c([C@@H](N)CC(C)C)c1 . Reported half-life?
Given back: 3.5

Asked: Entry under review: COc1cc(Cl)ccc1CC(C)C(=O)N1CCN(c2ccc(C(F)(F)F)cc2[C@@H](N)CC(C)C)CC1 (some centres not stated) . Reported half-life?
Given back: 1.9
